tested on: MCF7; test: NCI tumour cell line growth inhibition, 48 h
Calls of active or inactive are those of the source. Rule as the data show it: active = GI50 up to about 1.1 µM and inactive = higher.
Form entry, call: pick from 1 = active, -1 = inactive

Field: example entries. Status: answers known.
Cc1cccc(O)c1-c1nnc(CCCCCCCCc2nnc(-c3c(C)cccc3O)n2N)n1N: -1
c1ccc2c(NCCCCCCCCNc3c4ccccc4nc4ccccc34)c3ccccc3nc2c1: 1
O=C(NC1=C(Cl)C(=O)c2ccccc2C1=O)C(=O)C(C(=O)c1ccc2ccccc2c1)C1OC(=O)c2ccccc21 (configuration not stated): -1
CC(C)CC(=O)OC[n+]1ccc(-c2c(COC(=O)NC(C)C)c(COC(=O)NC(C)C)c3n2CCC3)cc1: -1
CC(NC1=NCCO1)c1cccc([N+](=O)[O-])c1 (configuration not stated): -1

Now, please, on to the next compound.
For CCn1c(-c2ccccc2)cs/c1=N\C(P(=O)(O)O)P(=O)(O)O , which call appears in the assay record?
-1

Data origin, for the record: ChEMBL document CHEMBL1201862
